target: T1, human IL-13 R130Q variant (R110Q of the mature chain) (human, UniProt P35225 35-146, Biotinylated on amines (NHS-LC-biotin, 4:1) in ELISA, panning and competition assays. The letters are unchanged.); experiment: competition ELISA, biotinylated IL-13 R130Q binding to plate-bound IL-13Ra2, crude supernatant
T1 construct: R130Q counts from Met 1 of the signal peptide, R110Q on the mature chain; Bought from Peprotech; also called IL-13 R110Q; b-R130Q
measured_quantity: Percent Inhibition IL-13 R130Q (333 ng/ml) to Ra2 (%)
Value expressed in %; do not type the unit.

For the binder Lc3Hc2 (antibody, V domains shown) VH: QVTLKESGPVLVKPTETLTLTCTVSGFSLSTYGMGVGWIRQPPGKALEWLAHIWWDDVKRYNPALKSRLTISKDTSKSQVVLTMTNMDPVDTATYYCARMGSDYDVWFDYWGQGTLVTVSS VL: AIQLTQSPSSLSASVGDRVTITCRASKSISKYLAWYQQKPGKAPKLLIYSGSTLQSGVPSRFSGSGSGTDFTLTISSLQPEDFATYYCQQHNEYPYTFGGGTKVEIK , give its measured Percent Inhibition IL-13 R130Q (333 ng/ml) to Ra2 value.
50

For the binder Lc4Hc2 (antibody, V domains shown) VH: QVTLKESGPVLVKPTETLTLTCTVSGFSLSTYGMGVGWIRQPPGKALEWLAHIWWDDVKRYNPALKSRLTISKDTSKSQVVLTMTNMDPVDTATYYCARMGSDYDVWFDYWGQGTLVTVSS VL: DIQMTQSPSSLSASVGDRVTITCRASKSISKYLAWYQQKPGKAPKRLIYSGSTLQSGVPSRFSGSGSGTEFTLTISSLQPEDFATYYCQQHNEYPYTFGGGTKVEIK , give its measured Percent Inhibition IL-13 R130Q (333 ng/ml) to Ra2 value.
55

For the binder Lc14Hc2 (antibody, V domains shown) VH: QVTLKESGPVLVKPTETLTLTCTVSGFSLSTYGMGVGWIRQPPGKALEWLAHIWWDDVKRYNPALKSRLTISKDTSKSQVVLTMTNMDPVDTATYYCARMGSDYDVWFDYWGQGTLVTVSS VL: DIQMTQSPSTLSASVGDRVTITCRASKSISKYLAWYQQKPGKAPKLLIYSGSTLQSGVPSRFSGSGSGTEFTLTISSLQPDDFATYYCQQHNEYPYTFGGGTKVEIK , give its measured Percent Inhibition IL-13 R130Q (333 ng/ml) to Ra2 value.
54
